Known cytotoxicity at 70.5 h of a selection of compounds
# assay_details: Human HepG2 cell viability assay in 384 well format
# Assay type: toxicity, cell-based
# Design: dose 125 nL, time 70.5 hour; concentration not given beside the values
# test_conditions: HepG2 cells, read-out: Inhibition
// units = %; emit number, no label

The examples below pair each entry with its known result.
Cn1[nH]c(C2CCC2)c(-c2ccc3c(c2)OCO3)c1=N = -3.82
O=C([C@H]1C[C@@H]2CN(c3ncc(F)cn3)C[C@H]1O2)N1CCOCC1 = -7.72
COc1ccc(C(=O)NCc2ccco2)nn1 = -6.23
CCc1nnc2n1CCN(C(=O)c1ccc(-c3ccco3)[nH]c1=O)C2 = -6.59
CN(Cc1ccccn1)C(=O)CNC(=O)N1CCc2ccccc2C1 = -10.7

Then there is this compound:
Suppose we examine the compound COC1CCN(C(=O)COC(C)=O)CC(=O)N(C)c2ccccc21 (stereo unspecified) ; what cytotoxicity at 70.5 h value has been reported? -3.04

====

# assay_details: Human HepG2 cell viability assay in 384 well format
# Assay type: toxicity, cell-based
# Set-up: dose 125 nL, time 70.5 hour; concentration not given beside the values
# test_conditions: HepG2 cells, read-out: Inhibition
value_kind: cytotoxicity at 70.5 h

Solved entries:
CN1CCN(CC2CCN(C(=O)CCC3CCCCC3)CC2)CC1 = -2.91%
CCc1nc2ccccc2c(=O)n1CC1(O)CCN(C(=O)C2CC2)CC1 = -11.5%
COc1cc(C(=O)NC(CC(=O)O)c2cccs2)cc(OC)c1C (configuration not stated) = -6.87%

Looking for the measured cytotoxicity at 70.5 h of Cc1ncsc1C(=O)NC1CCN(CC(=O)N(C)c2ccccc2)CC1 , can you help? -1.98%

I am curious: what cytotoxicity at 70.5 h value has been reported for CNC(=O)CN1CCOCC2(CN(CCC(F)(F)F)CCO2)C1 (configuration not stated) ? 4.91%

====

# assay_details: Human HepG2 cell viability assay in 384 well format
# Assay type: toxicity, cell-based
# Set-up: dose 125 nL, time 70.5 hour; concentration not given beside the values
# test_conditions: HepG2 cells, read-out: Inhibition
value_kind: cytotoxicity at 70.5 h (%)
A number alone suffices; assume %.

Record excerpt, results attached:
CC(=O)N1CCCN(C(=O)NC(C)Cn2ccnc2)CC1 (centres undefined) = -4.31
CCOCCN1CCN(CC2(O)CCCCC2)CC1 = -4.54

# cytotoxicity at 70.5 h lookup, item CC(C)(C)S(=O)(=O)c1ccc(N2CCC(n3ccnc3)CC2)cn1 -12.2

====

# assay_details: Human HepG2 cell viability assay in 384 well format
# Type: toxicity, cell-based
# Parameters: dose 125 nL, time 70.5 hour; concentration not given beside the values
# test_conditions: HepG2 cells, read-out: Inhibition
Recorded cytotoxicity at 70.5 h, one value per entry.
Field: numeric (%). Do not append units.

For the compound shown here, CN1CCCC1c1cncc(C(=O)NCc2ccccc2)n1 (stereo unspecified) , give the reported cytotoxicity at 70.5 h. -2.59

====

# assay_details: Human HepG2 cell viability assay in 384 well format
# Format: toxicity, cell-based
# Set-up: dose 125 nL, time 70.5 hour; concentration not given beside the values
# test_conditions: HepG2 cells, read-out: Inhibition
Readings of cytotoxicity at 70.5 h for the listed compounds
Report the figure in % without appending any unit label.

Answered examples (3):
CC(=O)N1CC(=O)N(c2cnn(C)c2)CC12CCN(Cc1nccs1)C2 (stereo unspecified) = -7.04
Cn1cc(-c2nc(CN3CCc4c(ncn4C4CC4)C3)cs2)cn1 = -15.2
Cc1cc(CN2CCC(CNC(=O)C3(c4ccccc4)CC3)C2)[nH]n1 (stereo unspecified) = 6.56

Record request: cytotoxicity at 70.5 h value, item Cc1ccc(CN2CCC3(C2)C(=O)N(CC(C)C)c2ccccc23)s1 (stereo unspecified) -7.14

Look up cytotoxicity at 70.5 h for this compound: Cc1ccccc1CC(=O)N1C[C@@H](O)[C@H](N2CCN(C)CC2)C1 0.191

Look at this compound and give its reported cytotoxicity at 70.5 h. CCOCc1ncn2c1CN(C(=O)Nc1cccc(F)c1)CC2 -13.3

What value of cytotoxicity at 70.5 h has been recorded for this entry: COc1ccc(CC(=O)Nc2cccnc2N2CCCC2)cc1OC -1.14

Need cytotoxicity at 70.5 h, item CC(=O)c1ccc(N2CCC3(CC2)CC(=O)N(C)C3)nc1 4.13

Consider the compound CCC(C)(CC(=O)OC)NCc1c(C)noc1C (stereo unspecified) and give its measured cytotoxicity at 70.5 h. -4.55

Any idea what its cytotoxicity at 70.5 h is? The compound is Cc1ccc(N2CCC3(CN(CCO)CCC3(F)F)C2)nn1 (stereo unspecified) -6.24

I am curious: what cytotoxicity at 70.5 h value has been reported for O=C1C[C@@H]2CCN(Cc3ccccc3)C[C@@H]2CCN1c1ccccc1 ? 6.43

====

# assay_details: Human HepG2 cell viability assay in 384 well format
# Type: toxicity, cell-based
# Set-up: dose 125 nL, time 70.5 hour; concentration not given beside the values
# test_conditions: HepG2 cells, read-out: Inhibition
value_kind: cytotoxicity at 70.5 h (%)
Report only the number, with the unit % understood.

CN(C)C(=O)CN1C[C@H]2CN(Cc3cccc(F)c3)C(=O)[C@H]2C1 = -5.27
O=C(NCc1cc[nH]n1)NCC(c1ccco1)N1CCCC1 (stereo not drawn) = -13.5
C/C(NC(=O)c1cccs1)=C1\C(=O)C[C@@H]2[C@H]1C2(C)C = -10
Cc1cnc(N)nc1NCCSCc1[nH]cnc1C = -1.94
Cc1ccc(C(=O)N2CCSCC2)cc1NC(=O)Cn1cncn1 = -6.81

Entry CC(=O)N1CCN(CCNS(=O)(=O)c2c(F)cccc2F)CC1 has what cytotoxicity at 70.5 h? -5.97

For CC(C)(C)c1n[nH]cc1CNC1CCC(O)CC1 (stereo not drawn) , what is its reported cytotoxicity at 70.5 h? -19.6

Need cytotoxicity at 70.5 h of CSCCCN1CCCC1c1noc(C)n1 (stereo not drawn) , thanks. 1.11

Entry under review: CCCn1nc(C)c(CNC(=O)C2COc3ccc(OC)cc3C2)c1C (stereo not drawn) . Reported cytotoxicity at 70.5 h? -2.92

Recorded cytotoxicity at 70.5 h for Cc1nc(C)n(CC2CCCN2Cc2nc3ccccc3o2)n1 (stereo not drawn) , please? -5.98

For the molecule Fc1cnc(N2CCCC3(CCN(Cc4ccco4)C3)C2)nc1 (stereo not drawn) , what cytotoxicity at 70.5 h is on record? 10.4

Name the recorded cytotoxicity at 70.5 h for O=C(NC[C@]1(O)CN(Cc2ncccc2F)C[C@H]1O)c1cc[nH]n1 . 21.3

Query: cytotoxicity at 70.5 h; subject: CC(C)Oc1ncnc2c1CCN(Cc1ccco1)CC2 -2.84

What cytotoxicity at 70.5 h value was documented for this molecule, Cc1ccc2c(n1)N(CCN(C)C)CCN(C(=O)c1ccoc1)C2 ? -11.8

cytotoxicity at 70.5 h for Cc1cc(CN(Cc2cccs2)CC2CCCO2)on1 (stereo not drawn) ? 20.8

Find the recorded cytotoxicity at 70.5 h belonging to CN(C)C(=O)CN1CCN(C(=O)c2cnn(-c3ccccc3Cl)c2)CC1 and report it. -13.6

For the molecule shown here, CN(C)CCN(C)c1cc(N2CCN(c3ccccn3)CC2)ncn1 , give the reported cytotoxicity at 70.5 h. 13.5

Which value of cytotoxicity at 70.5 h has been reported for COc1ccc(N2Cc3n[nH]c(=O)n3C2=O)cc1 in the records? -3.14

# input molecule: Cn1cc(CCNC(=O)CCc2ccc3c(c2)OCO3)cn1 ; wanted: its cytotoxicity at 70.5 h -8.33

Would you mind telling me what cytotoxicity at 70.5 h value was observed for Cc1ccc(OCC2CCCN(Cc3ccc(CO)o3)C2)cc1 (stereo not drawn) ? -3.39

Which cytotoxicity at 70.5 h is reported for this molecule? CC(=O)Nc1cccc(OCCNC(=O)N(C)Cc2ccncc2)c1 20.7

====

# assay_details: Human HepG2 cell viability assay in 384 well format
# Type: toxicity, cell-based
# Design: dose 125 nL, time 70.5 hour; concentration not given beside the values
# test_conditions: HepG2 cells, read-out: Inhibition
List of cytotoxicity at 70.5 h values.
Number only, in %; omit the unit.

Param item = O=C([C@H]1CC[C@@H]2[C@@H](CCN2Cc2nccs2)O1)N1CCOCC1 ; retrieve measured cytotoxicity at 70.5 h. -5.21

====

// values below are reported cytotoxicity at 70.5 h
# assay_details: Human HepG2 cell viability assay in 384 well format
# Format: toxicity, cell-based
# Set-up: dose 125 nL, time 70.5 hour; concentration not given beside the values
# test_conditions: HepG2 cells, read-out: Inhibition
Report only the number, with the unit % understood.

Some compounds with known cytotoxicity at 70.5 h results, for comparison:
CN(CCNC(=O)N1CCCC1)C(=O)OC(C)(C)C = -11.5
O=C(OCc1ccccc1)N1CC[C@H]2CC(CO)O[C@@H]2C1 (stereo partly specified) = 4.61
O=C(O)[C@@H]1CN(C(=O)CN2Cc3ccccc3C2)C[C@H]1c1ccncc1 = -1.71
O=C(N1CCCC1)N1CCOCC2(CCN(Cc3cccs3)C2)C1 (stereo unspecified) = 29.2

What value of measured cytotoxicity at 70.5 h is listed for Cc1ccc(N(C)[C@@H]2CC[C@@H]3CN(C(=O)CC4CCOCC4)C[C@@H]32)nn1 ? -7.61

Give its cytotoxicity at 70.5 h value. Item: Cc1cncnc1C1CCN(C(=O)CN(C)C)CC1 -8.84

// lookup cytotoxicity at 70.5 h for CCC(=O)N1CCC(Oc2ccc(C(=O)NCCN(C)C)cc2Cl)CC1 7.41

Endpoint output: cytotoxicity at 70.5 h of Cn1cc(C(=O)N2CC[C@@]3(O)CCN(C4CCCCC4)C[C@H]3C2)cn1 . Value? -2.94

Fill in the blank: the reported cytotoxicity at 70.5 h of CC(Cn1ccnc1)NC(=O)C1(c2ccc(F)cc2)CCCC1 (stereo unspecified) is ____. -7.69

Look up cytotoxicity at 70.5 h: Cc1cccnc1NC(=O)C1CCN(C(=O)C(C)C)CC1 -19.2

What does the record list as cytotoxicity at 70.5 h for Cc1ccccc1N1CCN(CCS(=O)(=O)c2ccc(Br)cc2)CC1 ? 16
